system: Cyno CD3εδ-Fc (cynomolgus) (UniProt Q95LI8)
Sequence (chain, as listed by the source mutant, chain 1 of 2): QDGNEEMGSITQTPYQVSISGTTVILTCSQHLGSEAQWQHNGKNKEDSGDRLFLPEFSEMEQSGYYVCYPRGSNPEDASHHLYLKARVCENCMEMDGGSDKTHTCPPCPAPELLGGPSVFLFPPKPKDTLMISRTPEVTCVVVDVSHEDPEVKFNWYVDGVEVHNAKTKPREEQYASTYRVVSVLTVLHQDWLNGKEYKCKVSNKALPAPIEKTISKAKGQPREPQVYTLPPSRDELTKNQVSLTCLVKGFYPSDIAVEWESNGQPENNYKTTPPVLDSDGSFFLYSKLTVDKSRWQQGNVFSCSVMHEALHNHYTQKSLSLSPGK
Sequence (Q95LI8 22-105, stated change not applied, chain 2 of 2): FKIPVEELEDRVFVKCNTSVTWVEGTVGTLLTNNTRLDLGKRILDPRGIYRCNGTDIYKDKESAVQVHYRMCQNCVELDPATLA
procedure-details: KD of scFv-Fc or IgG on cyno CD3εδ-Fc; instrument not given
A collection of binders and their measured Kd
All answers are understood in nM, so give the number only.

binder: ADI-45981 (antibody, V domains shown, also called Ab18) VH: QVQLVQSGAEVKKPGASVKVSCKASGFNIKDYYMHWVRQAPGQRLEWIGWIDLENANTVYDAKFQGRVTITRDTSASTAYMELSSLRSEDTAVYYCARDAYGRYFYDVWGQGTLVTVSS VL: DIVMTQSPDSLAVSLGERATINCKSSQSLLNARTGKNYLAWYQQKPGQPPKLLIYWASMRESGVPDRFSGSRSGTDFTLTISSLQAEDVAVYYCSQSYFRRTFGGGTKVEIK
val: 1.6

Now for the binder whose Kd we want.
// query Kd value for entry ADI-45983 (antibody, V domains shown, also called Ab20) VH: QVQLVQSGAEVKKPGASVKVSCKASGFNIKDYYMHWVRQAPGQRLEWIGWIDLENANTVYDAKFQGRVTITRDTSAGTAYMELSSLRSEDTAVYYCARDAYGRYFYDVWGQGTLVTVSS VL: DIVMTQSPDSLAVSLGERATINCKSSQSLLNARTMKNYLAWYQQKPGQPPKLLIYAASTRESGVPDRFSGSGSGTDFTLTISSLQAEDVAVYYCAQSYFRRTFGGGTKVEIK
2
